Data origin: paper PMC4754833

system: HIV-1 RT mutant K101E; test: single round infection assay, K101E; format: cell-based; settings: Human immunodeficiency virus 1, K101E; ± SD, n=4
pIC50: −log10 of the molar value.
Returns one of 1 or -1; 1 when pIC50 is >= 8.

For this molecule, is measured pIC50 8 or higher? Cc1cc(/C=C/C#N)cc(C)c1Nc1nc(Nc2ccc3scnc3c2)c2nc[nH]c2n1 1

For this molecule, is measured pIC50 8 or higher? Cc1cc(/C=C/C#N)cc(C)c1Nc1ncc2ncn(-c3ccc(C#N)cc3)c2n1 -1

For this molecule, is measured pIC50 8 or higher? Cc1cc(/C=C/C#N)cc(C)c1Nc1ccnc(Nc2ccc(C#N)cc2)n1 1

For this molecule, is measured pIC50 8 or higher? COc1ccc(Cn2cnc3c(Nc4ccc(C#N)cc4)nc(Nc4c(C)cc(/C=C/C#N)cc4C)nc32)cc1 1

For this molecule, is measured pIC50 8 or higher? Cc1cc(/C=C/C#N)cc(C)c1Nc1nc(Nc2ccc(C(F)(F)F)cc2)c2nc[nH]c2n1 1

For this molecule, is measured pIC50 8 or higher? Cc1cc(/C=C/C#N)cc(C)c1Nc1nc(Nc2ccc(C#N)cc2)ncc1N 1
